The entries below are paired with their reported IC50.
# Tested On: 26S proteasome non-ATPase regulatory subunit 14 (Homo sapiens)
# Sequence (O00487 whole entry): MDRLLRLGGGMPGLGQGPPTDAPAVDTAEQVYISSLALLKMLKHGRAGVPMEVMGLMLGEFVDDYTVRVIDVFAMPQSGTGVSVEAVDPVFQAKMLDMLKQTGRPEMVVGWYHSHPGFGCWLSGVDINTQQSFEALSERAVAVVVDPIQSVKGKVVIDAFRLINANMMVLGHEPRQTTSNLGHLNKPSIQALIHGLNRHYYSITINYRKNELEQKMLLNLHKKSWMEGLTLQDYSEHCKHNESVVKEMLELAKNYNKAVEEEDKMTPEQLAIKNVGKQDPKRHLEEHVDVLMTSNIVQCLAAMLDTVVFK
# Assay Overview: inhibition of proteasome subunit RPN11 – biochemical, fluorescence polarization, uHTS hits, confirmation (AID 602368)
# Assay type: functional
Active and inactive are the calls of the source. The rule behind the calls is not given here.
Measure: IC50

>>> observed_result("Oc1nc(Nc2ccc(Cl)cc2Cl)sc1/C=C1\\C=Nc2ccccc21")
"36.5 µM (active)"
>>> observed_result("C/C(=N\\NC(=O)c1ccc(OC2OCCOC2Oc2ccc(C(=O)N/N=C(\\C)c3ccncc3)cc2)cc1)c1ccncc1 (stereo unspecified)")
"9.62 µM (active)"
>>> observed_result("Cc1ccc(-c2nnn3c2nc(NCCc2ccc(S(N)(=O)=O)cc2)c2ccccc23)cc1")
"17.7 µM (active)"
>>> observed_result("N#Cc1c(-c2ccco2)cc(-c2ccc(F)cc2)nc1N")
"15.8 µM (active)"
>>> observed_result("COc1cccc(-n2c(SCC(N)=O)nc3ccccc3c2=O)c1")
"55.9 µM (active)"
>>> observed_result("COc1cc(N(C)C)ccc1C=c1c2ccccc2n2c1cc(-c1ccccc1)[n+]2C")
"24.9 µM (active)"
